- target: T1, His-NinH wt (Bacteriophage lambda (cI857 Sam7), UniProt P03771 1-68, A15T)
- T1 sequence: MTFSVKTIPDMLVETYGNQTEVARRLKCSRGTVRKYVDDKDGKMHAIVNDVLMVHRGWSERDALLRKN
- method.notes: MST; MST: PBS pH 7.4 + 0.05% Tween-20, 22 C; anisotropy: 6.7 mM Tris-HCl pH 8.0, 3.3 nM (so in the source) sodium acetate, 2 mM EDTA, 25 C; EMSA (32P): 50 mM Tris-HCl pH 8.0, 5 mM EDTA, 1 mM DTT, 5% glycerol, 100 ug/ml BSA, on ice; EMSA (Cy520): PBS pH 7.4, room temp
- condition.parameters: protein: recombinant; tags: N-His6; chain copies: 2; label: 5'-Cy5 on strand 1; blunt
endpoint.name: pKd
pKd is a log-scale quantity: -log10 of the concentration expressed in molar.

# pKd (binder: Cy520 (NinH consensus) (dsDNA) DNA 1: ACCGATCAAGAATTGTGCAT DNA 2: ATGCACAATTCTTGATCGGT ) is 8.25
